system: Albugo candida; assay: Albugo candida growth on A. thaliana after syringe infiltration, quantified via qPCR; format: in vivo; details: Albugo candida, in Arabidopsis thaliana, 100 μM, qPCR at 7 dpi, A. thaliana
Structures can show the parent of a compound that is named as a salt.
Hi there, I'd appreciate the recorded inhibition at 100 µM for every entry that follows.
Give bare numbers, in %.

[[record]]
molecule = "Oc1ccc(-c2cc(-c3ccc(O)c(O)c3)on2)cc1 [Compound 22]"
measured_quantity = "inhibition at 100 µM"
reported_result = 53

[[record]]
molecule = "Brc1ccccc1-c1cc(-c2ccc3c(c2)OCO3)n[nH]1 [Compound 10]"
measured_quantity = "inhibition at 100 µM"
reported_result = 68


Lab note: each molecule below needs its inhibition at 100 µM filled in.
1. Br.Oc1ccc(-c2noc(-c3ccc(O)c(O)c3)n2)cc1O [Compound 24, hydrobromide]
2. COc1ccc(-c2cc(-c3ccc(OC)c(OC)c3)on2)cc1 [Compound 19]
3. Brc1ccc(-c2cc(-c3ccc4c(c3)OCO4)n[nH]2)cc1 [Compound 38]
4. Oc1ccc(-c2c[nH]c(-c3ccc(O)c(O)c3)n2)cc1O [Compound 28, hydrobromide]

Result block:
1: 80; 2: 70; 3: 53; 4: 49
